All values here come from patent US20250026742A1.

- TESTED ON: ATR kinase (Homo sapiens (Human))
- Sequence (Q13535 whole entry): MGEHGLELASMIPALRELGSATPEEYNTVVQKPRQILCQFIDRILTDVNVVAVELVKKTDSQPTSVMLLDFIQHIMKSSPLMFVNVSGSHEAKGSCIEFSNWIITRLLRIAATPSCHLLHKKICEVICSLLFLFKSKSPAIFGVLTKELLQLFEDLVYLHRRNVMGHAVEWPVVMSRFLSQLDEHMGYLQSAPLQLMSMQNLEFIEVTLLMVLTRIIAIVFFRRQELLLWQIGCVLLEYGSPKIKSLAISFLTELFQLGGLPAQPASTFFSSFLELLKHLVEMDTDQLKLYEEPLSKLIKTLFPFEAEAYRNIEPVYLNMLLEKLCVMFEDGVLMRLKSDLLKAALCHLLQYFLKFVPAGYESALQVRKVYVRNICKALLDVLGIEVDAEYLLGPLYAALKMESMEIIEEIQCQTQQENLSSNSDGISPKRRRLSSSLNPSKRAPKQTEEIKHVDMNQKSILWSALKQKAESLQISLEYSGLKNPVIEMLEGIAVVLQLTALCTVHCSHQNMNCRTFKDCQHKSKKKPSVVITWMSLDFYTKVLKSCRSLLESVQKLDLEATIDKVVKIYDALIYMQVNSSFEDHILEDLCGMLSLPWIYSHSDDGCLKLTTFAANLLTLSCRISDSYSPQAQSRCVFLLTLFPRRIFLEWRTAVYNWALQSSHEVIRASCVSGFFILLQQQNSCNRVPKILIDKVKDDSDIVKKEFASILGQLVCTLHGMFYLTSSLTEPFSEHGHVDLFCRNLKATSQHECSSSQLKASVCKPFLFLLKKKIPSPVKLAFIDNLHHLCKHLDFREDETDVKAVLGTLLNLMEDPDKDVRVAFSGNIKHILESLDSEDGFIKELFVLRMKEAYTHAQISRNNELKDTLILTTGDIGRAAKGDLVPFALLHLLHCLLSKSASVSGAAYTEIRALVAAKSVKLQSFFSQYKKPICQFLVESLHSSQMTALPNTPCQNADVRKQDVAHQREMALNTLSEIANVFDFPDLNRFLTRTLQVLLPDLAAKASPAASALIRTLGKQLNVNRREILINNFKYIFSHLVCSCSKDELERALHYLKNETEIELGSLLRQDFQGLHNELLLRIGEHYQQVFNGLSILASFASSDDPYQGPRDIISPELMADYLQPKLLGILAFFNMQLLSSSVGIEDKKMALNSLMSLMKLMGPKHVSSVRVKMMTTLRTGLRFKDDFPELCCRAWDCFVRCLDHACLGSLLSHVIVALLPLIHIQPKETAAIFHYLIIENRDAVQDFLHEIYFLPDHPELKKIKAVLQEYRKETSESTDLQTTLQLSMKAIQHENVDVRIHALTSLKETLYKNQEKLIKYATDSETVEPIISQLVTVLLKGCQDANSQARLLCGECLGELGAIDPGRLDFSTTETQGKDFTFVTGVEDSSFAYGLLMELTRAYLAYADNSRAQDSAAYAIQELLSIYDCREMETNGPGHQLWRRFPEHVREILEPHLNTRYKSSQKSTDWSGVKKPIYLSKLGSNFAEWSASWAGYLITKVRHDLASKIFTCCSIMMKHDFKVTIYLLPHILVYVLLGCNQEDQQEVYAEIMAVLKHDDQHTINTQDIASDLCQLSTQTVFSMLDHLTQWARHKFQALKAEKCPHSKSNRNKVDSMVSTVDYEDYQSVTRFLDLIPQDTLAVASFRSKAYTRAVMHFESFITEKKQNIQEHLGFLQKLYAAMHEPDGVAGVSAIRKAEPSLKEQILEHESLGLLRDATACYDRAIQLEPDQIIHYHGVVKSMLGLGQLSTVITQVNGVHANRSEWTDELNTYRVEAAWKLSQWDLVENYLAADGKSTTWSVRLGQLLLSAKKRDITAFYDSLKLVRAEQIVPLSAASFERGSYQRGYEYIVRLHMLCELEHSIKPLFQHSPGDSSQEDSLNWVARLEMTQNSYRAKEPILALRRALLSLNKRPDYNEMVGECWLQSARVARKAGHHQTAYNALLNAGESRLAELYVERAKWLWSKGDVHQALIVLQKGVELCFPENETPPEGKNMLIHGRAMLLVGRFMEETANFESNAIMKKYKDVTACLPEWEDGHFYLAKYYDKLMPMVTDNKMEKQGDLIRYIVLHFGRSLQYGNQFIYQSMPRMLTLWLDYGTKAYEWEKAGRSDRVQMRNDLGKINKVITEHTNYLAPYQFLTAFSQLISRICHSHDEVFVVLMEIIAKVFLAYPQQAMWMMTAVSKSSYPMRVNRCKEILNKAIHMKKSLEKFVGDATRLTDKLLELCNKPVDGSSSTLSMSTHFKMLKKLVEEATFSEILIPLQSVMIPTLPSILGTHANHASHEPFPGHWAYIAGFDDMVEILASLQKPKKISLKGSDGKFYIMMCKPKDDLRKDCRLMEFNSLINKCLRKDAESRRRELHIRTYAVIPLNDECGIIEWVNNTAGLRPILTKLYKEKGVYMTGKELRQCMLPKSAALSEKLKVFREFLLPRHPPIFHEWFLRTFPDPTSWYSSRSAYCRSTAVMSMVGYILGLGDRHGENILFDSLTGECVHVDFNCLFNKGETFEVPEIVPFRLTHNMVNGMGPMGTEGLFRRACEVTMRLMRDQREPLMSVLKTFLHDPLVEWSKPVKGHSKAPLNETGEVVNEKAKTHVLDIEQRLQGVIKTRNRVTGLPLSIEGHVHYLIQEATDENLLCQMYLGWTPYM
- Sequence (Q8WXE1 whole entry partner): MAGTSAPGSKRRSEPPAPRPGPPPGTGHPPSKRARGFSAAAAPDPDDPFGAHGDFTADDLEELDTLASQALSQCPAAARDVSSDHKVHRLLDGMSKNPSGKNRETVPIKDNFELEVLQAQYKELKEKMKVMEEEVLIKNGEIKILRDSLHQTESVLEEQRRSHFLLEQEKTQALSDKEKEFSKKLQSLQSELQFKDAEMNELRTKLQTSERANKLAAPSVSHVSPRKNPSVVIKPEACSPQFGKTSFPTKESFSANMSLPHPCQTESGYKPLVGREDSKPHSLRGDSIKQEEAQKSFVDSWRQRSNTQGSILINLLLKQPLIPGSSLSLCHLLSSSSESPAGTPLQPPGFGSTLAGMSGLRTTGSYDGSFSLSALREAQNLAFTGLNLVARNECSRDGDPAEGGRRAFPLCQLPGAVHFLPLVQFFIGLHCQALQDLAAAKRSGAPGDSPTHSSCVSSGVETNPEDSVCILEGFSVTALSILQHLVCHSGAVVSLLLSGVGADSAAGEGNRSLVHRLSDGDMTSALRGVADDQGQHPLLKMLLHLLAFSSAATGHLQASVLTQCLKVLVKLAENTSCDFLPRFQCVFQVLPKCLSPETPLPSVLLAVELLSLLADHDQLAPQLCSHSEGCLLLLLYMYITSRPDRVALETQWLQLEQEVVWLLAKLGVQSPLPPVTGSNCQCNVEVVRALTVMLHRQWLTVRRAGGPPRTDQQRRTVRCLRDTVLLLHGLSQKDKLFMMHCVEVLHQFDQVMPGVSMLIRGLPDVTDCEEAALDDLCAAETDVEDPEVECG
- EXPERIMENT NOTES: ATR enzyme activity inhibition assay (HTRF)
- Format: biochemical
- CONDITIONS USED: p53 substrate, full-length ATR enzyme
Where a name gives a salt, the structure may show the parent alone.
So basically every entry gets a class from its IC50, ranges being lowest: < 1 nM; middle: ≥ 1 nM and < 2 nM; highest: ≥ 2 nM

Completed entries (count: 10):
Hello team, could you let me know which band the following compound falls into: "CC(C)S(=O)(=O)c1ccc(-c2cnc(N)c(-c3cc(-c4ccc(CNS(N)(=O)=O)cc4)no3)n2)cc1" highest

Hello team, could you let me know which band the following compound falls into: CNCc1ccc(-c2nnc(-c3nc(-c4ccc5c(c4)C(F)C(C)(C)S5(=O)=O)cnc3N)s2)cc1 (stereo not drawn) lowest

Hello team, could you let me know which band the following compound falls into: "CC(C)S(=O)(=O)c1ccc(-c2cnc(N)c(-c3cc(-c4ccc(CNC(=O)NC5CC5)cc4)no3)n2)cc1" highest

Hello team, could you let me know which band the following compound falls into: "CNC(=O)Nc1ccc(-c2cc(-c3nc(-c4ccc(S(=O)(=O)C(C)C)cc4)cnc3N)on2)cc1" middle

Hello team, could you let me know which band the following compound falls into: CNCc1ccc(-c2cc(-c3nc(-c4ccc5c(c4)C(F)C(C)(C)S5(=O)=O)cnc3N)no2)cc1 (stereo not drawn) lowest

Hello team, could you let me know which band the following compound falls into: CN(C)S(=O)(=O)c1ccc(-c2cnc(N)c(-c3cc(-c4ccc(CNC(=N)N)cc4)no3)n2)cc1 [Example 10, dihydrochloride] middle

Hello team, could you let me know which band the following compound falls into: CC(C)S(=O)(=O)c1ccc(-c2cnc(N)c(-c3cc(-c4c(F)cc(CNC(=N)N)cc4F)no3)n2)cc1 [Example 11, dihydrochloride] lowest

Hello team, could you let me know which band the following compound falls into: N=C(N)NCc1ccc(-c2cc(-c3nc(-c4ccc(S(=O)(=O)C5CC5)cc4)cnc3N)on2)cc1 [Example 23, dihydrochloride] lowest

Hello team, could you let me know which band the following compound falls into: "CC(C)S(=O)(=O)c1ccc(-c2cnc(N)c(-c3cc(-c4ccc(NC(=N)N)cc4)no3)n2)cc1" highest

Hello team, could you let me know which band the following compound falls into: CNCc1ccc(-c2cc(-c3nc(-c4ccc5c(c4)C(F)C(C)(C)S5(=O)=O)cnc3N)on2)cc1 (stereo not drawn) highest

Others:
Hello team, could you let me know which band the following compound falls into: "CNC(=O)NCc1ccc(-c2cc(-c3nc(-c4ccc(S(=O)(=O)C(C)C)cc4)cnc3N)on2)cc1" middle

Hello team, could you let me know which band the following compound falls into: "CC(C)S(=O)(=O)c1ccc(-c2cnc(N)c(-c3cc(-c4ccc5[nH]c(=O)[nH]c5c4)no3)n2)cc1" middle

Hello team, could you let me know which band the following compound falls into: CN=S(=O)(c1ccc(-c2cnc(N)c(-c3cc(-c4ccc(CNC(=N)N)cc4)no3)n2)cc1)C(C)C (stereo not drawn) [Example 13, dihydrochloride] middle

Hello team, could you let me know which band the following compound falls into: CNC(=N)Nc1ccc(-c2cc(-c3nc(-c4ccc(S(=O)(=O)C(C)C)cc4)cnc3N)on2)c(F)c1 [Example 20, dihydrochloride] middle

Hello team, could you let me know which band the following compound falls into: CCNC(=N)Nc1ccc(-c2cc(-c3nc(-c4ccc(S(=O)(=O)C(C)C)cc4)cnc3N)on2)cc1 [Example 18, dihydrochloride] middle

Hello team, could you let me know which band the following compound falls into: CC(C)S(=O)(=O)c1ccc(-c2cnc(N)c(-c3cc(-c4ccc(CNC(=N)N)c(F)c4)no3)n2)cc1 [Example 24, dihydrochloride] middle
